tested on: HS 578T breast; experiment: NCI-60 one-dose screen, 48 h (100 = growth as untreated, 0 = no growth, -100 = all killed); details: 10 µM
Compounds without any hit were thinned out: in the full panel of roughly 83,000, 20% have a hit.
assay metric: growth (%)
Answers are plain numbers, in %.

Worked set:
| chemical smiles | tested target | unit symbol | growth |
| --- | --- | --- | --- |
| Cc1ccc(NC(=O)c2[nH]c(SCCN(C)C)nc2-c2ccc(F)cc2)cc1C#Cc1cnc2cccnn12 | HS 578T breast | % | 88.3 |
| Cc1ccc(/C=C/C(=N/N=C(N)N)c2ccccc2)cc1 | HS 578T breast | % | -5.3 |
| CC(C)N1CCN(c2ccncc2S(=O)(=O)N2CCN(C)CC2)CC1 | HS 578T breast | % | 105 |
| c1ccc2c(c1)cnc1ccccc12 | HS 578T breast | % | 100 |

Task item: growth lookup needed for CCCCN(CCCC)CCCN=c1nc2c(c(N)n1-c1ccccc1)c(=S)n(-c1ccccc1)c(=S)n2-c1ccccc1 , thanks.
Reply: -64.6

Hey, just so you know, these numbers are from PubChem BioAssay (NCI).
